- target: T1, recombinant human αvβ8 integrin (human, UniProt P06756 31-1048; P26012 43-684)
- T1 construct: integrin αv subunit, human; integrin β8 subunit, human; details of reagents are in the Supplemental Materials; also called purified αvβ8; source: bought: Bio-Techne
- assay.info: direct integrin binding assay (near-infrared fluorescence scan of plates); microtiter plates coated with αvβ6 or αvβ8; peptide-IRDye conjugates incubated 1 h, washed, bound fluorescence read with Odyssey CLx; EC50
- experimental.parameters: both partners purified
Bridge positions count the residues as written; N and C are the ends. Square brackets hold non-standard residues; d marks the D form. Ends that are not written are not given here. Lys(N3) = [N-]=[N+]=NCCCC[C@H](N)C(=O)O; Pra = C#CC[C@H](N)C(=O)O
parameter.measured: EC50 (nM)
Give bare numbers, in nM.

input: Please report the recorded EC50 for C(maleimide‑IRDye 800CW)FETLRGDLRILSILR[Pra]QNL[Lys(N3)]KELQD-NH2 (triazole 17-21) [5a-IRDye conjugate] .
output: 1.9

The origin of these recorded values is paper PMC9760430.
